- System: MS2 coat protein
- PROCEDURE SUMMARY: apparent KD of MS2 coat protein; designed switch direction (-1 OFF switch, 1 ON switch): -1; higher = weaker reporter binding
- ASSAY SETUP: input ligand: none
QUANTITY KIND: apparent KD of MS2 coat protein (nM)
One number for each entry, in nM.

Could you report apparent KD of MS2 coat protein for every entry in the following list?
1. GCAGCUUAGUUAACAGACUGUUACAUGAGGAUCACCCAUGUACAGGAUAUGGUCUGGAUUACAGGCCAGAAGGGUACAAGCUGC [Eli exng3 - 018] (Eterna round: R96, puzzle: Exclusion NG 3)
2. AAUUAACAUCAGGAUAUGACUAGCUUCGGCUAGUCAGAAGGGAUGACAUGAGGAUCACCCAUGUGAUCAAUUAA [E6/2-A1] (Eterna round: R97, puzzle: Exclusion 6)
3. CGAGCUAGUGUGAGGAUAUACCUAUGGAUACAUAGGUAGAAGGCACAUGAGGAUCACCCAUGUCCUAUAGCUCG [jl-bmx4-4.56] (Eterna round: R97, puzzle: Brourd's mod of Exclusion 4)
4. UGCAUGUAAGGAUAUGCAACCUGCGCUCAUUAGCAGGUCAAGCAGAAGGUACAUGAGGAUCACCCAUGUGUCCG [Tebisoma] (Eterna round: R96, puzzle: Exclusion 4)

Output line:
1: 11.5; 2: 134; 3: 177; 4: 31.6

Input line: Item UGAUCUAGCGGAGGAUAUACAUGAGGAUCACCCAUGUAUACUCUAUGACCGUAGUCGUGGAGCGUGUAGAAGGCCGCUAGAUCU [JL ENG2 3.76] (Eterna round: R96, puzzle: Exclusion NG 2) has what recorded apparent KD of MS2 coat protein?
Output line: 11.6
